Property: koff; scope: individual binders
- target-or-test-system: T1, human IL-17A (human, UniProt Q16552 24-155)
- T1 construct: secreted form made in Hek293 cells (GenBank U32659); also called hIL-17A; hIL17A
- T1 sequence (Q16552 other isoform, or with tags, fused parts or gaps): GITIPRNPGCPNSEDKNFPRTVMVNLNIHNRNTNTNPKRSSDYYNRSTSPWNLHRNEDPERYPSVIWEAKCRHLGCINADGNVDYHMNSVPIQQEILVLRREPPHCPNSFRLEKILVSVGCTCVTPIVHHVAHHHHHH
- experiment: SPR (Biacore) off-rate
Unit s⁻¹ implied. Number only.

Prompt line: For the binder shown here, IL17MS3050 (VHH, variant of IL17MS13B03; Kabat numbering) VHH: EVQLVESGGGSVQPGGSLRLSCAASGRANSINWFGWFRQTPGKEREFVAGIRWSDAYTEYANSVKGRFTISRDNSKNTVDLQMDSLRPEDTAVYYCVLDLSTVRYWGQGTLVTVSS , give the reported koff.
Response line: 0.000267

Next:
Prompt line: Would you mind telling me what koff value was observed for IL17MS3044 (VHH, variant of IL17MS13B03; Kabat numbering) VHH: EVQLVESGGGLVQPGDSLRLSCAASGRANSINWFGWFRQTPGKEREFVAGIRWSDAYTEYANSVKGRFTISRDNSKNTVDLQMDSLRPEDTAVYYCVLDLSTVRYWGQGTLVTVSS ?
Response line: 0.000212
